Molecular target: T1, Recombinant Human FGFR2 alpha (IIIc) Fc Chimera Protein, CF (R&D systems, 712-FR-050) (human, UniProt P21802 22-377)
T1 construct: bought; not shown: Fc part of the chimera
T1 sequence (P21802 22-377, change not shown): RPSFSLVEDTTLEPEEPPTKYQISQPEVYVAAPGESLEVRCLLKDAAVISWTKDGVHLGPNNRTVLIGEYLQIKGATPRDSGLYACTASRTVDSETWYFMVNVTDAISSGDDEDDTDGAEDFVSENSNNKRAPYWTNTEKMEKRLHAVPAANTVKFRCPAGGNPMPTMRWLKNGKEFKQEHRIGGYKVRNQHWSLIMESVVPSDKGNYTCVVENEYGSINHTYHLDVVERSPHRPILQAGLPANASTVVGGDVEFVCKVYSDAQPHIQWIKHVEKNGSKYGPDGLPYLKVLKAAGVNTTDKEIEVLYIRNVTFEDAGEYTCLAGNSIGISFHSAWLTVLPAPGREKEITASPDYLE
Assay: ELISA on plate-bound FGFR2-Fc
Bridge positions count the residues as written; N and C are the ends. Ends that are not written are not given here. COCH2 = acetyl group that carries the bridge
ASSAY ENDPOINT: ELISA luminescence signal at 10 nmol/L peptide, relative to SEQ ID NO: 47 (=1)

- BINDER: "YCEENYLDPFQYQYFIYFK(COCH2)Y (thioether 2-19 (inferred)) [cyclic peptide SEQ ID NO: 241]"
  RECORDED VALUE: "≥ 0.7 ratio"
- BINDER: "QCENWLSQDQWKYFWQYK(COCH2)I (thioether 2-18; not fully specified; printed as Q-(C)-ENWLSQDQWKYFWQY-(K(acetyl))-I) [cyclic peptide SEQ ID NO: 39]"
  RECORDED VALUE: "≥ 0.7 ratio"
- BINDER: "LCGNYITPLQWKYFQTYK(COCH2)W (thioether 2-18) [cyclic peptide SEQ ID NO: 41]"
  RECORDED VALUE: "≥ 0.7 ratio"
- BINDER: "YCEENYLDPEQYQYFIYFK(COCH2)K (thioether 2-19; not fully specified; printed as Y-(C)-EENYLDPEQYQYFIYF-(K(acetyl))-K) [cyclic peptide SEQ ID NO: 346]"
  RECORDED VALUE: "≥ 0.7 ratio"
- BINDER: "YCEEGYLDPEQYQYFIYFK(COCH2)Y (thioether 2-19 (inferred)) [cyclic peptide SEQ ID NO: 181]"
  RECORDED VALUE: "0.5 to 0.7 ratio"
